testedOn: human SGLT2 (Homo sapiens)
Sequence (P31639 whole entry): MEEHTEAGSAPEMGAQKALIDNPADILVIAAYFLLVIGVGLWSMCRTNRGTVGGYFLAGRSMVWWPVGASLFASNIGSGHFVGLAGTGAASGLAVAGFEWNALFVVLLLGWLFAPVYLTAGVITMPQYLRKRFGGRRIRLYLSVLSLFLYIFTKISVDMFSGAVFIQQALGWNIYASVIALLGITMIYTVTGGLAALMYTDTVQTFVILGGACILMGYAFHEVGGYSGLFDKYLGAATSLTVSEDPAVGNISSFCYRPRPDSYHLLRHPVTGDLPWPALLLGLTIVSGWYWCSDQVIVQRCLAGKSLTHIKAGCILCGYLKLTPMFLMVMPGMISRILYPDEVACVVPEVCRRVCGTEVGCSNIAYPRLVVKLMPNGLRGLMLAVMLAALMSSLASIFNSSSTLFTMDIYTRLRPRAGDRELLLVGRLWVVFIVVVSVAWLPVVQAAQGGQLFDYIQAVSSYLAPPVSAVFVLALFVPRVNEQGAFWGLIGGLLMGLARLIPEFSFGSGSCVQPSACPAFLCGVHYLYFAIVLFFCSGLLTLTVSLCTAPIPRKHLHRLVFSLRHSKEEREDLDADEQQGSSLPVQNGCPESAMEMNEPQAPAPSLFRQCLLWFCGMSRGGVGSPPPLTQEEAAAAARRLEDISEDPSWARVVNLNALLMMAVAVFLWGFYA
experimentDescription: Inhibition of methyl-α-D-glucopyranoside uptake in CHO cells stably expressing human SGLT2
conditionSummary: methyl-α-D-(U-14C)glucopyranoside uptake, 37° C., 45 minutes, read-out: ICH value for the inhibition of SGLT2
reportedProperty: IC50 (nM)
Give bare numbers, in nM.

Query: Entry `CCc1ccc(Cc2ccc3c(c2)[C@]2(OC3)S[C@H](CO)[C@@H](O)[C@H](O)[C@H]2O)cc1` needs its IC50 filled in; supply it.
Response: 12
